pEC50 by entry:
Target: human RORgt nuclear receptor (RORgT ligand binding domain protein) (Homo sapiens)
Experiment: ROR-gamma binding assay (Scintillation Proximity Assay, displacement of [3H]-25-hydroxycholesterol)
Conditions: EC50, SPA, 15 nM [3H]-25-Hydroxycholesterol, RORgT LBD 12 nM
Bear in mind: pEC50 is minus log10 of a mol/L concentration; give just that figure.

Reference set, count: 6
{"molecule": "Cc1cc(CN2CCN(C(=O)O[C@H](C)C(F)(F)F)[C@@H](C)C2)c(C)c(Nc2nnc([C@H]3NCC[C@H]3O)o2)c1", "pEC50": 7.65}
{"molecule": "Cc1cc(CN2CCN(C(=O)OC(C)(C)C)[C@@H](C)C2)c(C)c(Nc2nnc(-c3cnnn3C)o2)c1", "pEC50": 7.51}
{"molecule": "Cc1cc(CN2CCN(C(=O)OC(C)C)[C@@H](C)C2)c(C)c(Nc2nnc(C)o2)c1", "pEC50": 7.47}
{"molecule": "Cc1c(CN2CCN(C(=O)OC(C)C)[C@@H](C)C2)cc(C(F)F)cc1Nc1nnc([C@H](C)O)o1", "pEC50": 7.27}
{"molecule": "Cc1cc(CN2CCN(C(=O)C3CCC(F)(F)C3)[C@@H](C)C2)c(C)c(Nc2nnc([C@H]3NCC[C@H]3O)o2)c1 (stereo partly shown)", "pEC50": 6.56}
{"molecule": "Cc1cc(CN2CCN(C(=O)OC(C)(C)C)[C@@H](C)C2)c(C)c(Nc2nnc([C@H](C)O)o2)c1", "pEC50": 7.45}

Shift focus to the following entry.
What value of measured pEC50 is listed for CCC(F)(F)C(=O)N1CCN(Cc2cc(Cl)cc(Nc3nnc(COC)o3)c2C)C[C@@H]1C ?
7.16

---

Molecular target: human RORgt nuclear receptor (RORgT ligand binding domain protein) (Homo sapiens)
Sequence (P51449 with tags, fused parts or gaps): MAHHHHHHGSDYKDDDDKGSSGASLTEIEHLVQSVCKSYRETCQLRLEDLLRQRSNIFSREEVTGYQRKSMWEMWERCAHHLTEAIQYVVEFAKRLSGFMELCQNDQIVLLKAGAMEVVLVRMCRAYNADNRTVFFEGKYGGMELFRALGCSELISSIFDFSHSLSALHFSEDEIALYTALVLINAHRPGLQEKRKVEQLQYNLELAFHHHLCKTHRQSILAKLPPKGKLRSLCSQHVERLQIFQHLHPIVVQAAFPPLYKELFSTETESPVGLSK
Experiment: ROR-gamma binding assay (Scintillation Proximity Assay, displacement of [3H]-25-hydroxycholesterol)
Settings: EC50, SPA, 15 nM [3H]-25-Hydroxycholesterol, RORgT LBD 12 nM
Where a name gives a salt, the structure may show the parent alone.
assay-metric: EC50 (nM)
All answers are understood in nM, so give the number only.

{"compound": "Cc1cc(CN2CCN(C(=O)OC(C)C)[C@@H](C)C2)c(C)c(Nc2nnc([C@@H](N)CO)o2)c1", "measurement-target": "human RORgt nuclear receptor (RORgT ligand binding domain protein) (Homo sapiens)", "EC50 [nM]": 84.1}
{"compound": "CCOC(=O)N1CCN(Cc2cc(C)cc(Nc3nnc([C@@H](C)O)o3)c2C)C[C@@H]1C", "measurement-target": "human RORgt nuclear receptor (RORgT ligand binding domain protein) (Homo sapiens)", "EC50 [nM]": 62}
{"compound": "Cc1cc(CN2CCN(C(=O)C3CC3)[C@@H](C)C2)c(C)c(Nc2nnc([C@@H](C)O)o2)c1", "measurement-target": "human RORgt nuclear receptor (RORgT ligand binding domain protein) (Homo sapiens)", "EC50 [nM]": 169}
{"compound": "Cc1cc(CN2CCN(C(=O)OC(C)C)[C@@H](C)C2)c(C)c(Nc2nnc(C3CCNC(=O)C3)o2)c1 (stereo partly drawn)", "measurement-target": "human RORgt nuclear receptor (RORgT ligand binding domain protein) (Homo sapiens)", "EC50 [nM]": 54.4}

Please provide the recorded EC50 for Cc1cc(CN2CCN(C(=O)OC(C)C)[C@@H](C)C2)c(C)c(Nc2nnc([C@H](C)O)o2)c1 , tested on human RORgt nuclear receptor (RORgT ligand binding domain protein) (Homo sapiens).
54.8

Param item: COCc1nnc(Nc2cc(Cl)cc(CN3CCN(C(=O)C4CCC(F)(F)C4)[C@@H](C)C3)c2C)o1 (stereo partly drawn)
45.4

Param item: COCc1nnc(Nc2cc(Cl)cc(CN3CCN(C(=O)C4CCCC4)[C@@H](C)C3)c2C)o1
14.7

Param item: COCc1nnc(Nc2cc(Cl)cc(CN3CCN(C(=O)C4CCC4)[C@@H](C)C3)c2C)o1
40.4

Param item: Cc1c(CN2CCN(C(=O)OCC(F)(F)F)[C@@H](C)C2)cc(Cl)cc1Nc1nnc(CC#N)o1
70

Param item: Cc1cc(CN2CCN(C(=O)C3CCC(F)(F)C3)[C@@H](C)C2)c(C)c(Nc2nnc([C@@H](C)O)o2)c1 (stereo partly drawn)
159

Param item: COCc1nnc(Nc2cc(Cl)cc(CN3CCN(C(=O)c4ccccc4)[C@@H](C)C3)c2C)o1
29

Param item: Cc1cc(CN2CCN(C(=O)OC(C)C)[C@@H](C)C2)c(C)c(Nc2nnc(C[C@@H](C)O)o2)c1
42.3

Param item: Cc1cc(CN2CCN(C(=O)OC(C)C)[C@@H](C)C2)c(C)c(Nc2nnc([C@@H](C)N)o2)c1
103

Param item: Cc1cc(CN2CCN(C(=O)OC(C)C)[C@@H](C)C2)c(C)c(Nc2nnc([C@@H]3COCCN3)o2)c1 [Example 55, dihydrochloride]
39

Param item: Cc1c(CN2CCN(C(=O)c3ccccc3)[C@@H](C)C2)cc(Cl)cc1Nc1nnc(C2CC2)o1
22.6

---

System: IL-17A levels in human peripheral blood
Assay: tissue or blood
Assay type: cell-based
Conditions: 72 h, read-out: Human Whole blood IL-17A (nM)
assay-metric: EC50
Please don't drop the unit; write it after the number.

Reference set, count: 3
{"compound": "Cc1cc(CN2CCN(C(=O)C3CC3)[C@@H](C)C2)c(C)c(Nc2nnc([C@@H](C)O)o2)c1 [Example 22]", "EC50": "355 nM"}
{"compound": "Cc1cc(CN2CCN(C(=O)C3CCC(F)(F)C3)[C@@H](C)C2)c(C)c(Nc2nnc(CC#N)o2)c1 (stereo partly shown) [Example 17]", "EC50": "131 nM"}
{"compound": "Cc1cc(CN2CCN(C(=O)OC(C)C)[C@@H](C)C2)c(C)c(Nc2nnc(C3CNC(=O)C3)o2)c1 (stereo partly shown) [Example 51]", "EC50": "266 nM"}

Shift focus to the following entry.
Please provide the recorded EC50 for CC[C@H](N)c1nnc(Nc2cc(Cl)cc(CN3CCN(C(=O)OC(C)C)[C@@H](C)C3)c2C)o1 [Example 38] , tested on IL-17A levels in human peripheral blood.
403 nM

---

System: IL-17A levels in human peripheral blood
Experiment: tissue or blood
Type: cell-based
Details: 72 h, read-out: Human Whole blood IL-17A (nM)
assay-metric: EC50 (nM)
All answers are understood in nM, so give the number only.

Reference set, count: 2
{"chemical-string": "Cc1cc(CN2CCN(C(=O)C3CCC3)[C@@H](C)C2)c(C)c(Nc2nnc([C@H](C)O)o2)c1", "EC50, nM": 259}
{"chemical-string": "Cc1cc(CN2CCN(C(=O)OC(C)C)[C@@H](C)C2)c(C)c(Nc2nnc([C@H](C)O)o2)c1", "EC50, nM": 140}

What value of measured EC50 is listed for COCc1nnc(Nc2cc(Cl)cc(CN3CCN(C(=O)c4ccccc4)[C@@H](C)C3)c2C)o1 ?
454

---

Tested on: IL-17A levels in human peripheral blood
Assay: tissue or blood
Format: cell-based
Conditions: 72 h, read-out: Human Whole blood IL-17A (nM)
EC50 by entry:
All answers are understood in nM, so give the number only.

What value of measured EC50 is listed for Cc1cc(CN2CCN(C(=O)C3CCC3)[C@@H](C)C2)c(C)c(Nc2nnc(CC#N)o2)c1 ?
421

Param item: CC[C@H](C)C(=O)N1CCN(Cc2cc(Cl)cc(Nc3nnc(COC)o3)c2C)C[C@@H]1C
132

Param item: Cc1c(CN2CCN(C(=O)OC(C)C)[C@@H](C)C2)cc(Cl)cc1Nc1nnc(C(O)C(F)(F)F)o1 (stereo partly shown)
307

Param item: Cc1cc(CN2CCN(C(=O)C3CC3C)[C@@H](C)C2)c(C)c(Nc2nnc([C@@H](C)O)o2)c1 (stereo partly shown)
238

Param item: Cc1cc(CN2CCN(C(=O)OC(C)C)[C@@H](C)C2)c(C)c(Nc2nnc([C@@H](N)CO)o2)c1
451

Param item: Cc1cc(CN2CCN(C(=O)OC(C)C)[C@@H](C)C2)c(C)c(Nc2nnc([C@H]3NCC[C@H]3O)o2)c1
368

Param item: Cc1cc(CN2CCN(C(=O)OCC(F)(F)F)[C@@H](C)C2)c(C)c(Nc2nnc([C@H]3C[C@@H](O)C3)o2)c1
227

// data source = patent US10934282B2
